B1: TMEM40 (parent)
chain: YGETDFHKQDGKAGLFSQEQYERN

Variants of: B1
experimentNotes: protein stability index of a GFP-peptide fusion (GPS, HEK-293T) (PSI 1-6); higher = more stable;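 also: lentivirally expressed fusions sorted by FACS into six bins by GFP to DsRed ratio, PSI derived from sequencing read proportions per bin multiplied by bin number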
runConditions: c terminus: a fixed tail appended
outcomeMeasure: protein stability index

[[record]]
mutationdescriptor = "A13M"
value = 3.65

[[record]]
mutationdescriptor = "E3P"
value = 3.88

[[record]]
mutationdescriptor = "D10Y"
value = 2.85

[[record]]
mutationdescriptor = "Q20W"
value = 3

[[record]]
mutationdescriptor = "A13R"
value = 3.96

[[record]]
mutationdescriptor = "S17E"
value = 4.51

[[record]]
mutationdescriptor = "E19K"
value = 3.23

[[record]]
mutationdescriptor = "F16V"
value = 4.65

[[record]]
mutationdescriptor = "D5G"
value = 2.37

[[record]]
mutationdescriptor = "S17M"
value = 3.97

[[record]]
mutationdescriptor = "E3W"
value = 3.49

[[record]]
mutationdescriptor = "N24T"
value = 3.89

[[record]]
mutationdescriptor = "A13D"
value = 4.28

